Numbers sourced from patent US20040229242.

# experimental_system: T1, RNase H1 D94G/D134A mutant (Escherichia coli, UniProt P0A7Y4 SEQ:1-155)
# T1 chain: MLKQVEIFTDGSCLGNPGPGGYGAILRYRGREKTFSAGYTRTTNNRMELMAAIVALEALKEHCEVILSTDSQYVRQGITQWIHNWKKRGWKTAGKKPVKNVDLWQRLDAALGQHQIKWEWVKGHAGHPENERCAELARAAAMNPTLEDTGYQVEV
# test_summary: filter; 50 mM NaCl, 1 mM EDTA, HEPES pH 7.0, 25 C
# settings: label: 32P end label on DNA strand
pKd: −log10 of the molar value.

{"binder": "RNA:DNA#1 (DNA:RNA) RNA: GGACCGGAAAGGUACGAGCAUGUGA DNA: TCACATGCTCGTACCTTTCCGGTCC", "pKd": 8.29}
